Tested on: Ba/F3 P210-BCR-ABL1 RUNX1-/mut (mouse)
Assay: drug sensitivity score (DSS) (DSS score); higher = more sensitive (stronger growth inhibition); extreme values may be limits of the assay
Respond with Criterion met for drug sensitivity score values of 0.4 and above, Criterion not met for values below.

molecule	class.assignment
CNc1nc(Nc2cn(C(C)(C)C#N)nc2C)ncc1C(F)(F)F	Criterion not met
O=C(Nc1cnn2ccc(N3CCC[C@@H]3c3cc(F)ccc3F)nc12)N1CC[C@H](O)C1	Criterion not met
C[C@@H](Oc1ccc2[nH]nc(/C=C/c3cnn(CCO)c3)c2c1)c1c(Cl)cncc1Cl	Criterion met
COc1cc2c(cc1-c1c(C)noc1C)ncc1[nH]c(=O)n([C@H](C)c3ccccn3)c12	Criterion met
COc1cc(OC)c(/C=C/S(=O)(=O)Cc2ccc(OC)c(NCC(=O)O)c2)c(OC)c1	Criterion met
O=C(O)CCCCC(CCSCc1ccccc1)SCc1ccccc1 (configuration not stated)	Criterion not met

====

Test system: Mye-BP RUNX1 p.R107C
Assay: drug sensitivity score (DSS) (DSS score); higher = more sensitive (stronger growth inhibition); extreme values may be limits of the assay
Respond with 1.0 for drug sensitivity score values of 3 and above, 0.0 for values below.

                                   molecule  class_assignment
0  NC1(c2ccc(-c3nc4ccn5c(=O)[nH]nc5c4cc3-c3ccccc3)cc2)CCC1 [MK-2206]               1.0
1  CS(=O)(=O)CCNCc1ccc(-c2ccc3ncnc(Nc4ccc(OCc5cccc(F)c5)c(Cl)c4)c3c2)o1 [Lapatinib]               0.0
2  Cc1ccc(-c2cc(C(F)(F)F)nn2-c2ccc(S(N)(=O)=O)cc2)cc1 [Celecoxib]               0.0
3  C/C(=C\c1csc(C)n1)[C@@H]1C[C@@H]2O[C@]2(C)CCC[C@H](C)[C@H](O)[C@@H](C)C(=O)C(C)(C)[C@@H](O)CC(=O)N1 [Ixabepilone]               1.0
4  CC(C)(C)NC(=O)[C@H]1CC[C@H]2[C@@H]3CC[C@H]4NC(=O)C=C[C@]4(C)[C@H]3CC[C@]12C [Finasteride]               0.0
5  O=C(O)CCCc1ccc(N(CCCl)CCCl)cc1 [Chlorambucil]               0.0
6  CC[C@@H]1C(=O)N(C)c2cnc(Nc3ccc(C(=O)NC4CCN(C)CC4)cc3OC)nc2N1C1CCCC1 [BI 2536]               1.0

====

Tested on: Ly-BP RUNX1 p.R204Q
Assay: drug sensitivity score (DSS) (DSS score); higher = more sensitive (stronger growth inhibition); extreme values may be limits of the assay
Recorded measurements of drug sensitivity score, one per entry
observed.property: drug sensitivity score

compound	observed.property	quantitative.result
O=C(c1cc(Cc2n[nH]c(=O)c3ccccc23)ccc1F)N1CCN(C(=O)C2CC2)CC1 [Olaparib]	drug sensitivity score	0
COc1cc([C@@H]2c3cc4c(cc3[C@@H](O[C@@H]3O[C@@H]5CO[C@@H](C)O[C@H]5[C@H](O)[C@H]3O)[C@H]3COC(=O)[C@H]23)OCO4)cc(OC)c1O [Etoposide]	drug sensitivity score	10.4
C[C@@H](Oc1cc(-c2cnn(C3CCNCC3)c2)cnc1N)c1c(Cl)ccc(F)c1Cl [Crizotinib]	drug sensitivity score	0
CS(=O)(=O)OCCCCOS(C)(=O)=O [Busulfan]	drug sensitivity score	0
COC1=CC(c2cc3ccccc3[nH]2)=N/C1=C\c1[nH]c(C)cc1C [Obatoclax]	drug sensitivity score	12.6
O=C1c2c(O)ccc(O)c2C(=O)c2c(NCCNCCO)ccc(NCCNCCO)c21 [Mitoxantrone]	drug sensitivity score	0
Nc1nc(Cl)nc2c1ncn2[C@H]1C[C@H](O)[C@@H](CO)O1 [Cladribine]	drug sensitivity score	10.8
Nc1ccccc1NC(=O)c1ccc(CNC(=O)OCc2cccnc2)cc1 [Entinostat]	drug sensitivity score	17.4
CCCS(=O)(=O)Nc1ccc(F)c(C(=O)c2c[nH]c3ncc(-c4ccc(Cl)cc4)cc23)c1F [Vemurafenib]	drug sensitivity score	0
COc1cc2ncnc(Nc3ccc(F)c(Cl)c3)c2cc1OCCCN1CCOCC1 [Gefitinib]	drug sensitivity score	0
Nc1nc(Cl)nc2c1ncn2[C@@H]1O[C@H](CO)[C@@H](O)[C@@H]1F [Clofarabine]	drug sensitivity score	32.9
CS(=O)(=O)CCNCc1ccc(-c2ccc3ncnc(Nc4ccc(OCc5cccc(F)c5)c(Cl)c4)c3c2)o1 [Lapatinib]	drug sensitivity score	0
CO[C@H]1/C=C\C=C(/C)C(=O)NC2=CC(=O)C(NCCN(C)C)=C(C[C@@H](C)C[C@H](OC)[C@H](O)[C@@H](C)/C=C(\C)[C@@H]1OC(N)=O)C2=O [Alvespimycin]	drug sensitivity score	12.8
CO[C@H](C(=O)[C@@H](O)[C@@H](C)O)[C@@H]1Cc2cc3cc(O[C@H]4C[C@@H](O[C@@H]5C[C@@H](O)[C@H](O)[C@@H](C)O5)[C@H](O)[C@@H](C)O4)c(C)c(O)c3c(O)c2C(=O)[C@H]1O[C@H]1C[C@@H](O[C@@H]2C[C@@H](O)[C@@H](O[C@@H]3C[C@](C)(O)[C@H](O)[C@@H](C)O3)[C@@H](C)O2)[C@H](O)[C@@H](C)O1 [Plicamycin]	drug sensitivity score	25.8
Cc1ccc(Nc2nccc(N(C)c3ccc4c(C)n(C)nc4c3)n2)cc1S(N)(=O)=O [Pazopanib]	drug sensitivity score	0
Nc1ncn([C@@H]2O[C@H](CO)[C@@H](O)[C@H]2O)c(=O)n1 [Azacitidine]	drug sensitivity score	0.999
CC(C)(C)NC(=O)[C@H]1CC[C@H]2[C@@H]3CC[C@H]4NC(=O)C=C[C@]4(C)[C@H]3CC[C@]12C [Finasteride]	drug sensitivity score	0
CN(C)C/C=C/C(=O)Nc1cc2c(Nc3ccc(F)c(Cl)c3)ncnc2cc1O[C@H]1CCOC1 [Afatinib]	drug sensitivity score	0
CC(=O)[C@]1(O)Cc2c(O)c3c(c(O)c2[C@@H](O[C@H]2C[C@H](N)[C@H](O)[C@H](C)O2)C1)C(=O)c1ccccc1C3=O [Idarubicin]	drug sensitivity score	26.2
CCNC(=O)CCC/C=C\C[C@@H]1[C@@H](/C=C/[C@@H](O)CCc2ccccc2)[C@H](O)C[C@@H]1O [Bimatoprost]	drug sensitivity score	0
CN(N=O)C(=O)N[C@@H](C=O)[C@@H](O)[C@H](O)[C@H](O)CO [Streptozocin]	drug sensitivity score	0
C[C@]12CC[C@@H]3c4ccc(O)cc4C[C@@H](CCCCCCCCC[S+]([O-])CCCC(F)(F)C(F)(F)F)[C@H]3[C@@H]1CC[C@@H]2O (some centres undefined) [Fulvestrant]	drug sensitivity score	0
Cc1cn(-c2cc(NC(=O)c3ccc(C)c(Nc4nccc(-c5cccnc5)n4)c3)cc(C(F)(F)F)c2)cn1 [Nilotinib]	drug sensitivity score	0
CC[C@@H]1C(=O)N(C)c2cnc(Nc3ccc(C(=O)NC4CCN(C)CC4)cc3OC)nc2N1C1CCCC1 [BI 2536]	drug sensitivity score	9.17
CC(C)C(=O)Nc1ccc([N+](=O)[O-])c(C(F)(F)F)c1 [Flutamide]	drug sensitivity score	0
CCN(CC)CCNC(=O)c1c(C)[nH]c(/C=C2\C(=O)Nc3ccc(F)cc32)c1C [Sunitinib]	drug sensitivity score	4.96
CCCCCCCCc1ccc(CCC(N)(CO)CO)cc1 [Fingolimod]	drug sensitivity score	3.76
COc1ccc(-c2cc3c(C)nc(N)nc3n([C@H]3CC[C@H](OCCO)CC3)c2=O)cn1	drug sensitivity score	21.7
COc1cccc2cc(-c3nc([C@H]4CC[C@H](C(=O)O)CC4)n4ncnc(N)c34)[nH]c12 [OSI-027]	drug sensitivity score	18.5
